Assayed system: human CDK4 and genetically truncated (1-264) cyclin D3 (Homo sapiens, UniProt P11802)
Sequence (P11802 whole entry, the tested form may be a part): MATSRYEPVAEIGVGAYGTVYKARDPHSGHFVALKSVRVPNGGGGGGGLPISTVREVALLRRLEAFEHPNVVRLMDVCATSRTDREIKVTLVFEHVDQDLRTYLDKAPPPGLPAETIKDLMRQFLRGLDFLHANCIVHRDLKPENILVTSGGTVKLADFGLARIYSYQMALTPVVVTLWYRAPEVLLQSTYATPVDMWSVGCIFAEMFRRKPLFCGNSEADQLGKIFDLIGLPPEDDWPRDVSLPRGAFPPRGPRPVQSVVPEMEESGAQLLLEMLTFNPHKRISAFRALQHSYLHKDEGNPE
Sequence (P30281 1-264 partner): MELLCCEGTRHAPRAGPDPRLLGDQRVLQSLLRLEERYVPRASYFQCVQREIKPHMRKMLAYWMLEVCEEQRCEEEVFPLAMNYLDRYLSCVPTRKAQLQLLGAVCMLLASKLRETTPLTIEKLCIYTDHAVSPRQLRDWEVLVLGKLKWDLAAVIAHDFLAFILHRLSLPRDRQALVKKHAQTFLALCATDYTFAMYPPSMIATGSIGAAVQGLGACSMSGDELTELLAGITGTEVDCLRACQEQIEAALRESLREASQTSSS
Test method notes: Inhibition of CDK4/Cyclin D Retinoblastoma Kinase Activity
Assay conditions: apparent Ki, CDK4/truncated cyclin D3, Rb fragment substrate, 25 μM ATP
Counter-ions that a name gives are not always drawn.
Ki for assorted compounds
Observable: Ki (pM)

compound=Nc1nc(NC2CCN(C(=O)Oc3ccc([N+](=O)[O-])cc3)CC2)sc1C(=O)c1c(F)cccc1F endpoint_result=7500
compound="CN1CC[C@@H](Oc2ccc(S(=O)(=O)N3CCC(Nc4nc(N)c(C(=O)c5c(F)cccc5F)s4)CC3)cn2)C1 [Example H27, Hydrochloride]" endpoint_result=970
compound="Nc1nc(NC2CCN(S(=O)(=O)c3ccc(-n4ccnc4)nc3)CC2)sc1C(=O)c1c(F)cccc1F [Example G25, Trifluoroacetic Acid Salt]" endpoint_result=360
compound="Nc1nc(NC2CCN(S(=O)(=O)c3ccc(CCCN4CCCCC4)nc3)CC2)sc1C(=O)c1c(F)cccc1F [Example I14, Trifluoroacetic Acid Salt]" endpoint_result=570
compound="CCN(CC)CCOc1ccc(S(=O)(=O)N2CCC(Nc3nc(N)c(C(=O)c4c(F)cccc4F)s3)CC2)cn1 [Example H18, Trifluoroacetic Acid Salt]" endpoint_result=300
compound="CN1CCC[C@H](COc2ccc(S(=O)(=O)N3CCC(Nc4nc(N)c(C(=O)c5c(F)cccc5F)s4)CC3)cn2)C1 [Example H11, Dihydrochloride]" endpoint_result=280
